Tested on: HCC-2998 colon
Experiment: NCI-60 one-dose screen, 48 h (100 = growth as untreated, 0 = no growth, -100 = all killed)
Conditions: 10 µM unless noted
Procedure: Growth inhibition of the HCC-2998 human tumor cell line is measured as a screen for anti-cancer activity. Cells are grown in 96 well plates and exposed to the test compound for 48 hours. Compounds are tested at a single concentration, which is 10^-5 M for most compounds. The reported endpoint is percent growth (GI% or GIPRCNT), where numbers from 0 - 100% represent growth inhibition, and numbers from -100% - 0 represent cell death. For example, a value of 40 represents 60% growth inhibition. […]
About 83,000 compounds went through this panel and 20% of them were active in at least one assay; those are over-represented in the sample as a whole.
Kindly supply the reported growth values for the records listed here.
Field: numeric (%). Do not append units.

Ask: Item Cc1cc2nc3c4ccc(Br)cc4n(CCN(C)C)c3nc2cc1C has what recorded growth?
Reply: 17

Ask: Bench note: what growth did COC(=O)C(CC=O)C(=O)C(=O)Nc1cccc(C(F)(F)F)c1 (centres undefined) show?
Reply: 97

Ask: For the compound COc1ccc(-c2nc(S(=O)(=O)c3ccccc3)c(S(=O)CC(=O)N3CCC(C)CC3)o2)cc1 (centres undefined) , what growth is on record?
Reply: 90.6

Ask: # growth lookup, item Cc1ccc(-c2csc(NC(=O)CSc3nc(-c4ccccc4)cc(=O)[nH]3)n2)cc1
Reply: 106

Ask: Can you look up the measured growth of COc1ccc(C(=O)NNc2nc(Cl)nc(N3CCN(C(c4ccccc4)c4ccccc4)CC3)n2)cc1 for me?
Reply: -10.7

Ask: Need growth, item C=C(C)[C@@H]1CC[C@]2(C(=O)N3CCN(C)CC3)CC[C@]3(C)[C@H](CC[C@@H]4[C@@]5(C)C/C(=C/c6cccnc6)C(=O)C(C)(C)[C@@H]5CC[C@]43C)[C@@H]12
Reply: 77.5

Ask: Item under review: COc1cc(C2C3=C(COC3=O)N(CCO)c3cc4c(cc32)CCC4)cc(OC)c1OC (centres undefined) . Reported growth?
Reply: -32.4

Ask: What value of growth has been reported for the following compound? N#Cc1cc(-c2nc3ccccc3s2)c(=O)n(NS(=O)(=O)c2ccccc2)c1N
Reply: 116

Ask: Sample CCNc1nc2ccc(Nc3ccnc4cc(Cl)ccc34)cc2[nH]1 — what was its growth?
Reply: 84.1
